Molecular target: SXR (Homo sapiens, UniProt O75469)
Sequence (O75469 whole entry): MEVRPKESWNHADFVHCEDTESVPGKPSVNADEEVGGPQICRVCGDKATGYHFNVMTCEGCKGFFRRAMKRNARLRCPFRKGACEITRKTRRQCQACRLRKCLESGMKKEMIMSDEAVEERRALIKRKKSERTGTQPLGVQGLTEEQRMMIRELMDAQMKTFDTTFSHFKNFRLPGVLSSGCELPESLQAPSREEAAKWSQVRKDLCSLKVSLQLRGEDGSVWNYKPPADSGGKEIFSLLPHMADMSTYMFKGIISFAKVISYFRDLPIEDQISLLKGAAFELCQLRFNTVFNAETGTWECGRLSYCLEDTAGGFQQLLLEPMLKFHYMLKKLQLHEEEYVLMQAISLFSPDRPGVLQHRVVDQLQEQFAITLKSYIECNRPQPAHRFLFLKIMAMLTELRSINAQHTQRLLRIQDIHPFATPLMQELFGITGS
Experiment: Microplate thermal shift assay (Thermofluor) of SXR with ligands, co-activator peptide SRC1-NR2 and co-repressor peptide NCoR-1
Details: computed from affinities derived from ΔΔTm with co-regulator peptides (FIG. 3)
Under this convention, MET denotes Probability Agonist (statistical probability of agonist state) strictly below 0.5 and NOT MET denotes Probability Agonist (statistical probability of agonist state) at or above 0.5.

> print(dat)
                                   compound  discrete.label
1  CC(=O)[C@@]1(O)CC[C@H]2[C@@H]3CCC4=CC(=O)CC[C@]4(C)[C@H]3CC[C@@]21C [17-α-hydroxyprogesterone]             MET
2  C[C@]12CC[C@@H]3c4ccc(O)cc4CC[C@H]3[C@@H]1CC[C@@H]2O [Estradiol]         NOT MET
3  C[C@]12CCC(=O)C=C1CC[C@@H]1[C@@H]2C(=O)C[C@@]2(C)[C@H]1CC[C@]2(O)C(=O)CO [Cortisone]             MET
4  C[C@]12C[C@H](O)[C@H]3[C@@H](CCC4=CC(=O)CC[C@@]43C)[C@@H]1CC[C@@H]2C(=O)CO [Corticosterone]         NOT MET

Please check: Probability Agonist (statistical probability of agonist state) for C[C@]12CC[C@@H](O)C[C@@H]1CC[C@@H]1[C@@H]2CC[C@]2(C)C(=O)CC[C@@H]12 [Androsterone] , strictly under 0.5 or not?
MET

Hey, just so you know, these numbers are from patent US20060099643A1.
